Could you please report measured GI50 at 24 h for the items listed next?
assay: Toxicity on rat primary hepatocytes (ATP detection); assay type: cell-based; details: SD, ATP detection reagent
Field: numeric (µM). Do not append units.

Per the record, `CO[C@H]1C[C@@H]2CC[C@@H](C)[C@@](O)(O2)C(=O)C(=O)N2CCCC[C@H]2C(=O)O[C@H]([C@H](C)C[C@@H]2CC[C@@H](OC(=O)C[n+]3cccc(C)c3)[C@H](OC)C2)CC(=O)[C@H](C)/C=C(\C)[C@@H](O)[C@@H](OC)C(=O)[C@H](C)C[C@H](C)/C=C/C=C/C=C/1C.[Br-]` has GI50 at 24 h of 71.8

Consider `CO[C@H]1C[C@@H]2CC[C@@H](C)[C@@](O)(O2)C(=O)C(=O)N2CCCC[C@H]2C(=O)O[C@H]([C@H](C)C[C@@H]2CC[C@@H](OC(=O)C[n+]3ccc(C)cc3)[C@H](OC)C2)CC(=O)[C@H](C)/C=C(\C)[C@@H](O)[C@@H](OC)C(=O)[C@H](C)C[C@H](C)/C=C/C=C/C=C/1C.[Br-]` . Its measured GI50 at 24 h is 44.9

Per the records, this molecule ( CO[C@H]1C[C@@H]2CC[C@@H](C)[C@@](O)(O2)C(=O)C(=O)N2CCCC[C@H]2C(=O)O[C@H]([C@H](C)C[C@@H]2CC[C@@H](O)[C@H](OC)C2)CC(=O)[C@H](C)/C=C(\C)[C@@H](O)[C@@H](OC)C(=O)[C@H](C)C[C@H](C)/C=C/C=C/C=C/1C [Rapamycin, reference compound] ) has GI50 at 24 h equal to 24.8

Briefly, GI50 at 24 h measured for `CO[C@H]1C[C@@H]2CC[C@@H](C)[C@@](O)(O2)C(=O)C(=O)N2CCCC[C@H]2C(=O)O[C@H]([C@H](C)C[C@@H]2CC[C@@H](O)[C@H](OC)C2)CC(=O)[C@H](C)/C=C(\C)[C@@H](OC(=O)C[n+]2ccc(C)cc2)[C@@H](OC)C(=O)[C@H](C)C[C@H](C)/C=C/C=C/C=C/1C.[Br-]` : 54.3

====

observed-property: melting point

For this compound ( `CO[C@H]1C[C@@H]2CC[C@@H](C)[C@@](O)(O2)C(=O)C(=O)N2CCCC[C@H]2C(=O)O[C@H]([C@H](C)C[C@@H]2CC[C@@H](OC(=O)C[n+]3ccccc3)[C@H](OC)C2)CC(=O)[C@H](C)/C=C(\C)[C@@H](O)[C@@H](OC)C(=O)[C@H](C)C[C@H](C)/C=C/C=C/C=C/1C.[Br-]` ), measured melting point is 135 to 137 °C

====

assay: Solubility test (Chinese Pharmacopoeia 2010, Part II); assay type: physicochemical; conditions: water, thermodynamic from solid
Task for the reader: assign each of the following compounds its reported solubility.
The reply should be a number in mg/mL, with the unit left off.

Documented solubility of CO[C@H]1C[C@@H]2CC[C@@H](C)[C@@](O)(O2)C(=O)C(=O)N2CCCC[C@H]2C(=O)O[C@H]([C@H](C)C[C@@H]2CC[C@@H](OC(=O)C[n+]3csc(C)c3C)[C@H](OC)C2)CC(=O)[C@H](C)/C=C(\C)[C@@H](OC(=O)C[n+]2csc(C)c2C)[C@@H](OC)C(=O)[C@H](C)C[C@H](C)/C=C/C=C/C=C/1C.[Br-].[Br-] [Example 4] : 100

Per the record, CO[C@H]1C[C@@H]2CC[C@@H](C)[C@@](O)(O2)C(=O)C(=O)N2CCCC[C@H]2C(=O)O[C@H]([C@H](C)C[C@@H]2CC[C@@H](OC(=O)C[n+]3ccc(C)cc3)[C@H](OC)C2)CC(=O)[C@H](C)/C=C(\C)[C@@H](OC(=O)C[n+]2ccc(C)cc2)[C@@H](OC)C(=O)[C@H](C)C[C@H](C)/C=C/C=C/C=C/1C.[Br-].[Br-] [Example 14] has solubility of 120

The compound CO[C@H]1C[C@@H]2CC[C@@H](C)[C@@](O)(O2)C(=O)C(=O)N2CCCC[C@H]2C(=O)O[C@H]([C@H](C)C[C@@H]2CC[C@@H](OC(=O)C[n+]3cscc3C)[C@H](OC)C2)CC(=O)[C@H](C)/C=C(\C)[C@@H](OC(=O)C[n+]2cscc2C)[C@@H](OC)C(=O)[C@H](C)C[C@H](C)/C=C/C=C/C=C/1C.[Br-].[Br-] [Example 1] showed solubility equal to 34.5

Kindly note the recorded solubility for CO[C@H]1C[C@@H]2CC[C@@H](C)[C@@](O)(O2)C(=O)C(=O)N2CCCC[C@H]2C(=O)O[C@H]([C@H](C)C[C@@H]2CC[C@@H](OC(=O)C[n+]3cccc(C)c3)[C@H](OC)C2)CC(=O)[C@H](C)/C=C(\C)[C@@H](OC(=O)C[n+]2cccc(C)c2)[C@@H](OC)C(=O)[C@H](C)C[C@H](C)/C=C/C=C/C=C/1C.[Br-].[Br-] [Example 9] , which is 47

Values compiled from patent US10160767B2.
